System: SK-MEL-5
Assay Explanation: NCI tumour cell line growth inhibition, 48 h
The source made the active and inactive calls. Cut-off read from the data, not from the text of the source: active = GI50 up to about 1.1 µM and inactive = higher.
Please state which outcome applies, choosing from active, inactive

Consider the following illustrative entries.
>>> label_class("O=C1/C(=C/c2ccc(O)cc2)CCc2ccccc21")
"inactive"
>>> label_class("N/N=C(\\CCN1CCCC1)CC(c1ccccc1)c1c(O)c2ccccc2oc1=O (stereo not given)")
"inactive"
>>> label_class("CCOC(=O)C1(C#N)C(=O)c2cc[n+](CC[n+]3ccc4c(c3)C(=O)C(C#N)(C(=O)OCC)C4=O)cc2C1=O (stereo not given)")
"inactive"
>>> label_class("COCC(C#N)NC1CC(OC2CC(O)(C(=O)CO)Cc3c(O)c4c(c(O)c32)C(=O)c2c(OC)cccc2C4=O)OC(C)C1O (stereo not given)")
"active"
>>> label_class("O=C(CSc1nnc(Cc2ccccc2)o1)Nc1ccc(Cl)cc1Cl")
"inactive"

Test call for this compound, please: CN(C(=O)Cc1cccc(N=C=S)c1)[C@H]1CCCC[C@@H]1N1CCCC1
inactive

Test call for this compound, please: CCCc1n[nH]c(CCC(=O)N(Cc2ccccc2)Cc2ccccc2)c1CC
inactive

Test call for this compound, please: C=CCn1c(-c2ccc(/N=N/Nc3ccc(-c4n[nH]c(=S)n4CC=C)cc3)cc2)n[nH]c1=S
inactive

Test call for this compound, please: Cc1[nH]c2ccccc2c1/C=N/c1ccc(/N=C/c2c(C)[nH]c3ccccc23)cc1
inactive

* * *

Tested on: CCRF-CEM
Assay Explanation: NCI tumour cell line growth inhibition, 48 h
The source made the active and inactive calls. Cut-off read from the data, not from the text of the source: active = GI50 up to about 1.1 µM and inactive = higher.
Property: GI50; scope: individual molecules

The examples below pair each entry with its known result.
>>> result("CCOC(=O)N1N=NC2C3OC(C[C@@]3(C#N)OC(C)=O)[C@H]21 (stereo not given in full)")
"> 100 µM (inactive)"
>>> result("C/C(CC(=O)Nc1ccc([N+](=O)[O-])cc1)=N\\NC(N)=O")
"> 44.6 µM (inactive)"
>>> result("C[n+]1ccc(Nc2ccc(NC(=O)c3ccc(Nc4cc[n+](C)c5ccc([N+](=O)[O-])cc45)cc3[N+](=O)[O-])cc2)cc1")
"33.2 µM (inactive)"
>>> result("COc1ccc(C(=O)/C=C/c2ccc(OCCCCCCCCCCOc3ccc(/C=C/C(=O)c4ccc(OC)cc4)cc3)cc2)cc1")
"> 100 µM (inactive)"
>>> result("C1=N\\CCN2CCN(CC/N=C\\c3ccccc3OCc3cccc(n3)COc3ccccc3/1)CC2")
"3.39 µM (inactive)"

GI50 lookup needed for Cc1cc(OCc2nnc3n2S(=O)(=O)c2ccccc2N3C)ccc1Cl , thanks.
15.7 µM (inactive)

GI50 lookup needed for CCOc1cc(NC(C)=O)ccc1C(=O)NN1C(=O)CSC1c1ccc(O)c(OC)c1 (stereo not given) , thanks.
40.8 µM (inactive)

GI50 lookup needed for CC(C)c1ccccc1NC(=O)CCc1n[nH]c(=S)o1 , thanks.
> 64.1 µM (inactive)

GI50 lookup needed for O=C(/C=C/c1ccc(Cl)cc1)c1ccncc1 , thanks.
43.7 µM (inactive)

GI50 lookup needed for CN1CCN(CC(=O)N2CCCn3c2nc2ccccc2c3=O)CC1 , thanks.
> 100 µM (inactive)

* * *

Tested on: SNB-78
Assay Explanation: NCI tumour cell line growth inhibition, 48 h
The source made the active and inactive calls. No stated cut-off is given here; in the data, active = GI50 up to about 1.1 µM and inactive = higher.
Property Measured: GI50

The examples below pair each entry with its known result.
>>> result("c1ccc2c(c1)Cc1c(Cc3csc4ccccc34)ccc3cccc-2c13")
"94.4 µM (inactive)"
>>> result("CC(C)CC(CNC(Cc1ccc(Cl)cc1)C(N)=O)NC(=O)C(Cc1c[nH]cn1)NC(=O)CNC(=O)C(NC(=O)C(C)NC(=O)C(Cc1c[nH]c2ccccc12)NC(=O)C(CCC(=O)O)NC(=O)C(N)Cc1ccccc1)C(C)C (centres undefined)")
"> 133 µM (inactive)"

GI50 lookup needed for CN(CCCN1C(=O)c2cccc3cc([N+](=O)[O-])cc(c23)C1=O)CCN(C)CCCN1C(=O)c2cccc3cc([N+](=O)[O-])cc(c23)C1=O , thanks.
> 39.3 µM (inactive)

GI50 lookup needed for O=C(CC1(O)C(=O)Nc2ccccc21)c1ccccc1Cl (centres undefined) , thanks.
> 100 µM (inactive)

GI50 lookup needed for NC(N)NCCCc1cn2c(n1)C1CCCN1C(=O)C2Cc1ccccc1 (centres undefined) , thanks.
> 100 µM (inactive)

GI50 lookup needed for Cc1cc2c(C)n[nH]c2c(C(=O)O)c1C , thanks.
36.2 µM (inactive)

GI50 lookup needed for C=C[C@]1(C)CCC2=C(CCC3C2(C)CCC[C@]3(C)CO)C1 (some centres undefined) , thanks.
79.4 µM (inactive)

GI50 lookup needed for CC(C)(C)c1ccc2c(c1)OP1(Oc3c(Cl)cc(Cl)c4cccnc34)(O2)Oc2ccc(C(C)(C)C)cc2O1 , thanks.
23 µM (inactive)

GI50 lookup needed for N#CC1(C2CC(=O)N(c3ccccc3)C2=O)CCCCC1=O (centres undefined) , thanks.
> 100 µM (inactive)

* * *

System: CAKI-1
Assay Explanation: NCI tumour cell line growth inhibition, 48 h
Activity calls are given as the source filed them. No stated cut-off is given here; in the data, active = GI50 up to about 1.1 µM and inactive = higher.
Please state which outcome applies, choosing from YES = active, NO = inactive

Consider the following illustrative entries.
>>> label_class("CC(=O)c1ccc2c3c1O[C@H]1c4[nH]c5ccccc5c4C[C@@]4(O)[C@@H](C2)N(CC2CC2)CC[C@]314")
"NO"
>>> label_class("CC1(C)C2CCC3(C2)CS(=O)(=O)N2OC231 (stereo not given)")
"NO"
>>> label_class("CS(=O)(=O)Oc1cccc(/C=N/N=C(\\N)NO)c1")
"NO"
>>> label_class("CN(C)CCNc1nc2ccccc2c2c1C(=O)c1ccccc1-2")
"YES"

From here, focus on the item given below.
Test call for this molecule, please: CC1(C)CC(=O)c2c(nc3c(ccc4ccccc43)c2-c2ccc(NC(=O)CCCC(=O)Nc3ccc(-c4c5c(nc6c4ccc4ccccc46)CC(C)(C)CC5=O)cc3)cc2)C1
NO

* * *

Tested on: UACC-62
Assay Explanation: NCI tumour cell line growth inhibition, 48 h
Calls of active or inactive are those of the source. Cut-off read from the data, not from the text of the source: active = GI50 up to about 1.1 µM and inactive = higher.
Property Measured: GI50

>>> result("CCOP(=O)(OCC)/C(C#N)=C/c1[nH]cnc1C")
"> 100 µM (inactive)"
>>> result("COc1ccc(/C=C/c2cc(OC)c(OC(C)=O)c(OC)c2)cc1")
"20.1 µM (inactive)"
>>> result("Cc1cc(C)nc(NS(=O)(=O)c2ccc(Nc3c4ccccc4nc4c(C(=O)NCCN(C)C)cccc34)cc2)n1")
"3.55 µM (inactive)"
>>> result("COc1cc(/C=C2/SC(c3ccccc3)N(c3ccccc3Cl)C2=O)cc(OC)c1OC (stereo unspecified)")
"37.9 µM (inactive)"

GI50 lookup needed for N#CC(C(=O)C(=O)C(C#N)c1ccc(Br)cc1)c1ccc(Br)cc1 (stereo unspecified) , thanks.
1.51 µM (inactive)

GI50 lookup needed for Clc1nc2c(C#Cc3ccccc3)ncnc2n1C1CCCCO1 (stereo unspecified) , thanks.
13.4 µM (inactive)

GI50 lookup needed for CCOC(=O)C(NC(=O)CC)(N1CCN(c2cc3c(cc2F)c(=O)c(C(=O)O)cn3C2CC2)CC1)C(F)(F)F (stereo unspecified) , thanks.
> 100 µM (inactive)

GI50 lookup needed for CCCNCCCCC(NC(C)=O)C(=O)NCc1ccccc1 (stereo unspecified) , thanks.
> 100 µM (inactive)

* * *

System: RXF 393
Assay Explanation: NCI tumour cell line growth inhibition, 48 h
Activity calls are given as the source filed them. Rule as the data show it: active = GI50 up to about 1.1 µM and inactive = higher.
Property: GI50; scope: individual compounds

The examples below pair each entry with its known result.
>>> result("CC(C)=CC(=O)c1[nH]c2ccccc2c1CC(=O)NCCc1cn(C(c2ccccc2)(c2ccccc2)c2ccccc2)cn1")
"2.81 µM (inactive)"
>>> result("C=CC(C)(C)C(=C)C(=O)Nc1ccccc1I")
"> 100 µM (inactive)"
>>> result("O=C1/C(=C/c2ccc(O)cc2)CCc2ccccc21")
"17.1 µM (inactive)"
>>> result("S=C1NCCN1C(=S)NC1CCCCC1")
"4.28 µM (inactive)"
>>> result("Cc1cc(-c2nc3cc(O)ccc3s2)ccc1N")
"27.5 µM (inactive)"

GI50 lookup needed for COc1cccc(CCNC(=O)Cc2ccccc2CCO)c1 , thanks.
> 100 µM (inactive)

GI50 lookup needed for COc1cc(C2S/C(=C/c3ccccc3)C(=O)N2c2ccccc2Cl)cc(OC)c1OC (stereo unspecified) , thanks.
9.53 µM (inactive)

GI50 lookup needed for CC(C)(CO)CNc1cc(Cl)nc(N)n1 , thanks.
> 100 µM (inactive)

GI50 lookup needed for CC(C)(C)c1ccc2c(c1)OP1(Oc3c(Cl)cc(Cl)c4cccnc34)(O2)Oc2ccc(C(C)(C)C)cc2O1 , thanks.
13.3 µM (inactive)

GI50 lookup needed for Cc1cc(C)nc(NS(=O)(=O)c2ccc(Nc3c4ccccc4nc4c(C(=O)NCCN(C)C)cccc34)cc2)n1 , thanks.
6.32 µM (inactive)

GI50 lookup needed for CN(C(=O)Cc1cccc(N=C=S)c1)[C@H]1CCCC[C@@H]1N1CCCC1 , thanks.
12.9 µM (inactive)

Entry source: ChEMBL document CHEMBL1201862
